Origin of values: ChEMBL document CHEMBL3885881

Species: Rattus norvegicus
experimentSummary: DrugMatrix - Regimen: Daily Repeat
Type: toxicity, organism-based, Sprague-Dawley
Set-up: regimen Daily Repeat, gender Male, age 6-8 weeks
runParameters: in vivo, po, 10 mg/kg, 72 h, tissue Blood, route oral GAVAGE, dose level Low, time 3 day, vehicle .5 % CMC
The compounds listed here are annotated with their MEAN CORPUSCULAR HEMOGLOBIN.
Note to self: number, then unit, no commentary.

Observe how each entry below is paired with its result.
INSERT INTO results (compound, obsvalue) VALUES
  ('O=C1CN=C(c2ccccc2)c2cc([N+](=O)[O-])ccc2N1', '25.23 pg'),
  ('COc1c(C)c2c(c(O)c1C/C=C(\C)CCC(=O)OCCN1CCOCC1)C(=O)OC2 [MYCOPHENOLATE MOFETIL]', '26.1 pg'),
  ('CC(=O)O[C@]1(C(C)=O)CC[C@H]2[C@@H]3C=C(Cl)C4=CC(=O)CC[C@]4(C)[C@H]3CC[C@@]21C [CHLORMADINONE ACETATE]', '25.37 pg');

# ---- query compound ----
Request: Entry NS(=O)(=O)c1cc2c(cc1Cl)NCNS2(=O)=O [HYDROCHLOROTHIAZIDE] : reported MEAN CORPUSCULAR HEMOGLOBIN = ?
Result: 23.8 pg

###

Species on record: Rattus norvegicus
Format: toxicity, organism-based, Sprague-Dawley
runParameters: in vivo, po, 0 mg/kg, 24 h, vehicle control, tissue Blood, route oral GAVAGE, dose level Control, time 1 day, […]
Description: DrugMatrix - Regimen: Single
experimentalReadout: ABSOLUTE LYMPHOCYTE (CELLS/uL)
Supply the numeric figure in CELLS/uL, leaving out any unit text.

Request: Entry CC(C)(Oc1ccc(CCNC(=O)c2ccc(Cl)cc2)cc1)C(=O)O [BEZAFIBRATE] : reported ABSOLUTE LYMPHOCYTE = ?
Result: 14725.17

###

The compounds listed here are annotated with their LYMPHOCYTE.
Species on record: Rattus norvegicus
experimentSummary: DrugMatrix - Regimen: Daily Repeat
Format: toxicity, organism-based, Sprague-Dawley
Parameters: regimen Daily Repeat, gender Male, age 6-8 weeks
runParameters: in vivo, po, 0 mg/kg, 72 h, tissue Blood, route oral GAVAGE, dose level Control, time 3 day, vehicle .5 % CMC
Supply the numeric figure in %, leaving out any unit text.

INSERT INTO results (compound, experimentalreadout, obsvalue) VALUES
  ('COc1c(C)c2c(c(O)c1C/C=C(\C)CCC(=O)OCCN1CCOCC1)C(=O)OC2 [MYCOPHENOLATE MOFETIL]', 'LYMPHOCYTE', 89.83);

Request: Entry CCc1cccc2c3c([nH]c12)C(CC)(CC(=O)O)OCC3 (centres undefined) [ETODOLAC] : reported LYMPHOCYTE = ?
Result: 76.48

Request: What do you have for CCC[C@@H]1C[C@@H](C(=O)N[C@@H]([C@H]2O[C@H](SC)[C@H](O)[C@@H](O)[C@H]2O)[C@@H](C)O)N(C)C1 [LINCOMYCIN] ?
Result: 91.67

Request: What do you have for NCC(=O)O [GLYCINE] ?
Result: 87.5

Request: What do you have for CC(C)[C@H](N)C(=O)OCCOCn1cnc2c(=O)[nH]c(N)nc21 [VALACYCLOVIR] ?
Result: 90.17

Request: What do you have for CC(/C=C1\SC(=S)N(CC(=O)O)C1=O)=C\c1ccccc1 ?
Result: 89.83

Request: What do you have for CCc1ccc(C(=O)C(C)CN2CCCCC2)cc1 (centres undefined) [EPERISONE] ?
Result: 88.33

Request: What do you have for O=c1[nH]cc(F)c(=O)[nH]1 [FLUOROURACIL] ?
Result: 87.67

Request: What do you have for CN1CCC[C@@H]1CCO[C@](C)(c1ccccc1)c1ccc(Cl)cc1 [CLEMASTINE] ?
Result: 89.83

Request: What do you have for CN1C(C(=O)Nc2ccccn2)=C(O)c2ccccc2S1(=O)=O [PIROXICAM] ?
Result: 83.33
